Answer each item with its documented Inhibition.
- System: Staphylococcus aureus
- measurement context: Concentration 32 ug.mL-1;; ASSAY_TEST Inhibition of Bacterial Growth; detection method Absorption (OD600); MEDIA CAMHB; plate type 384well; NBS; CORNING #3640; time 18 hr
- Description: Antibacterial activity against Staphylococcus aureus MRSA ATCC 43300 (CO-ADD:GP_020); MIC in CAMBH media, using NBS plates, by OD(600)
Potency and affinity values are given separately.
Answer in %, number only, no unit symbol.

Form: molecule = O=C(CCc1nnc2c3cc(-c4ccc(F)cc4)nn3ccn12)NCc1ccccc1Cl ; Inhibition = -0.61

Field Inhibition (entry CC(C)c1nnc2c(=O)n(CC(=O)Nc3ccccc3)c3ccccc3n12 ) reads 12.53

Kindly note the recorded Inhibition for CCCn1c(=O)c2sccc2n2c(=O)n(CC(=O)c3ccc(OC)c(OC)c3)nc12 , which is 7.14

The molecule listed as COc1cccc(-n2ccn3c(SCC(=O)Nc4ccc(C(C)C)cc4)nnc3c2=O)c1 has a reported Inhibition of 0.38

Value of measured Inhibition for the entry Cc1cc2nn(CC(=O)Nc3ccc(F)cc3Cl)c(=O)n2c(Nc2ccccc2C)n1 : -3.09

Lab note: Cc1ccc(Oc2nc3ccccc3n3c(=O)n(CC(=O)Nc4ccccc4C(F)(F)F)nc23)cc1 gave Inhibition of 11.78

Short answer for Cc1ccc(-c2cc3c4nn(CC(=O)NCc5ccccc5Cl)c(=O)n4ccn3n2)cc1C : Inhibition was 0.72

Entry COc1cccc(Oc2nccn3c(=O)n(CC(=O)Nc4ccc(OC)c(Cl)c4)nc23)c1 — recorded Inhibition = 8.12

# molecule O=C(Cn1nc2c3sc(N4CCCC4)nc3ncn2c1=O)Nc1ccccc1Cl ; its Inhibition = 4.77

The molecule identified as CCc1nnc2c(S(=O)(=O)N(Cc3ccc(OC)c(F)c3)c3ccccc3)cccn12 registered its Inhibition at 14.47

Inhibition in this record for O=S(=O)(c1ccc2nncn2c1)N(Cc1cccc(Cl)c1)c1ccccc1 : 11.21

Sample C=Cc1ccc(Cn2nc3c(=O)n(-c4cccc(Cl)c4C)ccn3c2=O)cc1 ; Inhibition observed: -2.71

Short answer for Cc1cc(C)c(NC(=O)Cn2nc3ccc(SC(C)(C)C)nn3c2=O)c(C)c1 : Inhibition was 11.62

Lookup result for CCCCc1ccc(NC(=O)CSc2nc3ccccc3n3c(C(C)C)nnc23)cc1 ; measured Inhibition: -8.95

Input CSc1ccc(CNC(=O)Cn2nc3c(Oc4cccc(C)c4C)nccn3c2=O)cc1 . Output Inhibition: 11.62

molecule COCCCNC(=O)CSc1nnc2c(=O)n(Cc3ccccc3)ccn12 , Inhibition observed: 7.01

Per the record, Cc1ccc(NC(=O)Cn2nc3ccc(SC(C)C)nn3c2=O)c(C)c1 has Inhibition of -3.52

Sample O=c1c2sccc2n2c(=O)n(Cc3cccc(Br)c3)nc2n1Cc1cccs1 ; Inhibition observed: -27.59

Input Cn1c(=O)c2ccc(C(=O)NC3CCCC3)cc2n2c(SCc3c(F)cccc3Cl)nnc12 . Output Inhibition: 12.53

The molecule COc1ccc(N(Cc2cccc(C)c2)S(=O)(=O)c2ccc3nnc(C)n3c2)cc1 showed Inhibition equal to 2.37

In plain terms, COc1ccc(-c2cc3c4nn(CC(=O)Nc5c(C)cc(C)cc5C)c(=O)n4ccn3n2)cc1 has a documented Inhibition of 9.75

Entry COc1ccc(NC(=O)CSc2nnc3c(=O)n(-c4cccc(F)c4)ccn23)cc1OC — recorded Inhibition = 3.1

Lookup result for COc1ccc(NC(=O)Cn2nc3c4c5c(sc4ncn3c2=O)CCCC5)cc1 ; measured Inhibition: 2.3

In plain terms, COc1ccc(CNC(=O)Cn2nc3c(SCc4ccc(Cl)cc4)nccn3c2=O)cc1 has a documented Inhibition of -6.61

Documented Inhibition of CCOC(=O)c1ccc(NC(=O)Cn2nc3ccc(Sc4cccc(F)c4)nn3c2=O)cc1 : 9.91

Record summary for CC(C)c1nnc2c(SCC(=O)Nc3ccccc3F)nc3ccccc3n12 : reported Inhibition = 10.78

Quick note, Inhibition for CC(C)CCn1c(=O)c2sccc2n2c(=O)n(CC(N)=O)nc12 landed at 1.13

Input O=C(CSc1nnc2c(=O)n(-c3ccccc3)ccn12)c1ccc(F)cc1 . Output Inhibition: 16.24

Record summary for Cc1cc(C)cc(Nc2nc(C)cc3nn(CC(=O)NCc4ccco4)c(=O)n23)c1 : reported Inhibition = 4.89

Lookup result for Cc1cccc(CN(c2cccc(F)c2)S(=O)(=O)c2ccc3nncn3c2)c1 ; measured Inhibition: -2.24

The reported Inhibition of the molecule CN(C)C(=O)CSc1nnc2c(=O)n(-c3ccc(F)cc3)ccn12 was 8.32

For CCOC(=O)c1ccccc1NC(=O)Cn1nc2c(Sc3ccccc3)nccn2c1=O the molecule record lists Inhibition as 8.61

get_value(item= COC(=O)c1sccc1NC(=O)Cn1nc2c(Oc3ccccc3)nc3ccccc3n2c1=O , readout=Inhibition) returns 9.09

O=S(=O)(c1ccc2nncn2c1)N(Cc1cc(F)cc(F)c1)c1ccc(F)c(F)c1 has a reported Inhibition of 8.61

Item: Cc1cccc(CSc2nnc3c(=O)n(-c4ccc(Br)cc4)ccn23)c1 | Inhibition: 20.89

Short answer for CCc1nnc2c(SCC(=O)Nc3c(C)cc(C)cc3C)nc3ccccc3n12 : Inhibition was 7.54

// Inhibition lookup, molecule = COc1ccc(CNC(=O)Cn2nc3c4cc(-c5ccc(C)c(C)c5)nn4ccn3c2=O)cc1 , result: 6.21

In plain terms, Cc1cc(Br)ccc1NC(=O)Cn1nc2c(Sc3cccc(F)c3)nccn2c1=O has a documented Inhibition of 10.13

Per the record, Cc1cc(C)c(NC(=O)Cn2nc3c(N4CCCC(C)C4)nccn3c2=O)c(C)c1 (stereo not given) has Inhibition of -1.28

Value of measured Inhibition for the entry Cc1ccc(CN(c2cccc(F)c2)S(=O)(=O)c2ccc3nnc(C)n3c2)cc1 : -4.51

---

- Test system: Staphylococcus aureus
- measurement context: Concentration 32 ug.mL-1;; ASSAY_TEST Inhibition of Bacterial Growth; detection method Absorption (OD600); MEDIA CAMHB; plate type 384well; NBS; CORNING #3640; time 18 hr
Measured potencies and affinities stand elsewhere.
outcome measure: Inhibition (%)
Provide only the numeric value, understood in %.

Sure, the documented Inhibition for Cc1ccc(NC(=O)Cn2nc3c(N4CC(C)CC(C)C4)nccn3c2=O)c(F)c1 (stereo not given) is 10.72

According to the records, this molecule COc1ccc(C)cc1NC(=O)Cn1nc2c(N3CCSCC3)nc3ccccc3n2c1=O displays Inhibition of 9.36

// sample Cc1ccc(-c2ccc3nnc(CCC(=O)NCc4ccc(C(C)C)cc4)n3n2)cc1C , its Inhibition was 2.18

Lab note: measured Inhibition of CCc1cccc(C)c1NC(=O)Cn1nc2ccc(SCc3ccc(Cl)cc3)nn2c1=O was -4.43

Quick note, Inhibition for O=C(CSc1nnc2ccc(C(=O)NCc3ccccc3)cn12)Nc1ccccc1Br landed at 7.29

Entry under test: CCOc1ccc(-c2nc(CSc3nc4ccccc4n4c(C(C)C)nnc34)c(C)o2)cc1 . Its Inhibition was -10.96

What the record says about O=C(Cn1nc2c3cc(-c4ccc(F)cc4)nn3ccn2c1=O)NCc1ccccc1Cl : Inhibition is 7.18

Sample COc1ccc(CN(c2ccc(F)cc2)S(=O)(=O)c2ccc3nnc(C)n3c2)cc1F ; Inhibition observed: -10.32

Summary for this molecule, COc1ccc(NC(=O)Cn2nc3c(Oc4ccccc4)nccn3c2=O)cc1OC : Inhibition is 1.69

The molecule COc1cccc(CN(c2ccc(F)c(F)c2)S(=O)(=O)c2cccn3c(C)nnc23)c1 showed Inhibition equal to 17.08

Recorded result, COc1cc(Cl)c(C)cc1NC(=O)Cn1nc2ccc(SC(C)(C)C)nn2c1=O , Inhibition: 0.92

CCOc1ccccc1NC(=O)Cn1nc2c3cc(-c4ccc(OC)cc4)nn3ccn2c1=O yielded Inhibition of 2.23

// Inhibition lookup, molecule = COc1ccc(-c2cc3c4nnc(SCC(=O)NCc5ccc(Cl)cc5)n4ccn3n2)cc1 , result: -1.89

The recorded Inhibition for entry COc1ccc(-c2cc3c4nn(CC(=O)Nc5ccc(C)cc5C)c(=O)n4ccn3n2)cc1 equals 1.83

Sample COc1ccc(NC(=O)Cn2nc3cc(C)nc(Nc4ccc(F)cc4)n3c2=O)cc1F ; Inhibition observed: 9.09

Measured Inhibition of CC(C)Cn1c(=O)c2sccc2n2c(=O)n(CC(N)=O)nc12 : -15.52

Measured Inhibition of COc1ccc(CNC(=O)Cn2nc3c(Oc4cccc(C)c4C)nccn3c2=O)cc1 : -12.87

// recorded Inhibition for Cc1ccc(-c2ccc3nn(CC(=O)NC4CCCCC4)c(=O)n3n2)cc1C : 8.8

# molecule O=C(Cn1nc2n(Cc3ccccc3)c(=O)c3ccccc3n2c1=O)Nc1ccc2c(c1)OCO2 ; its Inhibition = -3.15

The value of Inhibition measured for the molecule COc1ccc(NC(=O)C(C)Sc2nnc3c(=O)n(-c4ccccc4)ccn23)cc1 (stereo not given) turned out to be 4.59

---

- Test system: Escherichia coli
- measurement context: Concentration 32 ug.mL-1;; ASSAY_TEST Inhibition of Bacterial Growth; detection method Absorption (OD600); MEDIA CAMHB; plate type 384well; NBS; CORNING #3640; time 18 hr
- Description: Antibacterial activity against Escherichia coli ATCC 25922 (CO-ADD:GN_001); MIC in CAMBH media using NBS plates, by OD(600)
Measured potencies and affinities stand elsewhere.
outcome measure: Inhibition (%)
API: value field is a number in %; no unit string.

Inhibition measured on CCC(Sc1nnc2c(=O)n(-c3cccc(OC)c3)ccn12)C(=O)Nc1cc(OC)cc(OC)c1 (stereo not given) = -6.26

# Inhibition (compound: Cc1ccc(C)c(-c2cc3c4nnc(CCC(=O)NCCc5ccc(Cl)cc5)n4ccn3n2)c1 ) is 3.02

What the record says about Cc1ccc(Sc2nccn3c(=O)n(CC(=O)Nc4ccc(F)c(Cl)c4)nc23)c(C)c1 : Inhibition is -15.97

According to the records, this compound COc1cc(NC(=O)C(C)Sc2nnc3c(=O)n(-c4cccc(OC)c4)ccn23)cc(OC)c1 (stereo not given) displays Inhibition of -14.15

compound O=C(Cn1nc2ccc(Sc3cccc(F)c3)nn2c1=O)Nc1cccc(Cl)c1 , Inhibition observed: -4.86

Value source: ChEMBL document CHEMBL4513146
